Data credit: patent US20140073634A1

# IC50 per record follows
Tested on: 293T-HRE-GFP-luc cells
Assay: Cell-based reporter assay for IC50 determinations (HRE-luciferase, hypoxia)
Conditions: 6 h, 6 hrs hypoxia (1% O2), luminescence

Completed entries (count: 5):
CS(=O)(=O)C1CCN(c2cc(Cn3nc(-c4nc(-c5ccc(OC(F)(F)F)cc5)no4)ccc3=O)ccn2)CC1
< 100 nM
CN1CCN(c2cccc(Cn3nc(-c4nc(-c5ccc(OC(F)(F)F)cc5)no4)ccc3=O)c2)CC1
< 100 nM
COCCOc1cccc(Cn2cc(-c3noc(-c4ccc(NC(C)=O)cc4)n3)ccc2=O)c1
100 to 1000 nM
COCCOc1cccc(Cn2cc(-c3noc(-c4ccc(C5CC5)cc4)n3)ccc2=O)c1
< 100 nM
O=C(c1cc(Cn2nc(-c3nc(-c4ccc(OC(F)(F)F)cc4)no3)ccc2=O)ccc1F)N1CCOCC1
100 to 1000 nM

Look up and report measured IC50 for this entry: `CS(=O)(=O)C1CCN(c2cccc(Cn3cc(-c4nnc(-c5ccc(OC(F)F)cc5)o4)ccc3=O)c2)CC1`
< 100 nM

Look up and report measured IC50 for this entry: `COC(=O)C(C)(C)c1cccc(Cn2cc(-c3nc(-c4ccc(OC(F)(F)F)cc4)no3)ccc2=O)c1`
< 100 nM
